# method-description: Binding affinity to human PNMT-S-adenosyl-L-methionine complex
quantity: Ki (nM)
Please reply with the bare figure in nM and do not write the unit itself.

IN: Given the molecule CC(N)c1cccc(Cl)c1Cl (stereo unspecified) , what is its reported Ki?
OUT: 72

====

# subject-of-test: UniProt P11086
quantity: pKi
Reminder that pKi means the negative base-10 logarithm of the concentration expressed in mol/L.

IN: Find pKi (UniProt P11086) for the entry CC(N)c1cccc(Cl)c1Cl (stereo unspecified)
OUT: 5.88

====

# subject-of-test: Phenylethanolamine N-methyltransferase (Homo sapiens)
# Sequence (P11086 whole entry): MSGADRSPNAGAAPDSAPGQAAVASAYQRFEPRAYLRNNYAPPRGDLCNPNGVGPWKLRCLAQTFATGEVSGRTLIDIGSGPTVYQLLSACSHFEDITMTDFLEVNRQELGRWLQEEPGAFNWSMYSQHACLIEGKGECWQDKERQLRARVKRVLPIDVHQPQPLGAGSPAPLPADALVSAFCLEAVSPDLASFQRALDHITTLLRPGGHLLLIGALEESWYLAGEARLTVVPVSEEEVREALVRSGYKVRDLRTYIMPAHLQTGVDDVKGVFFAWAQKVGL
quantity: Kd (µM)
Please reply with the bare figure in µM and do not write the unit itself.

IN: What value of Kd has been reported for the following compound? C[S+](CC[C@H](N)C(=O)[O-])C[C@H]1O[C@@H](n2cnc3c(N)ncnc32)[C@H](O)[C@@H]1O (stereo partly specified)
OUT: 4.8
